Tested on: galium
protocol: Test A postemergence herbicide test
Format: in vivo, Galium aparine
measurementContext: 125 g ai/ha, 0 to 100 scale, 0 is no effect, 100 is complete control
Provide the recorded Plant response rating, Galium for the entries that follow.
Just the number, please, no unit attached.

Reported Plant response rating, Galium for CCc1cccc(C2CNC(=O)C2C(=O)Nc2ccc(F)c(F)c2F)c1 (racemic) [Compound 171] was 50

According to the records, this compound O=C1NCC(c2cccc(C3CC3)c2)C1C(=O)Nc1ccc(F)c(F)c1F (racemic) [Compound 168] displays Plant response rating, Galium of 60

The compound listed as O=C1NCC(c2ccc(OC(F)F)cc2)C1C(=O)Nc1ccccc1Cl (centres unmarked) [Compound 226] has a reported Plant response rating, Galium of 20

Value of Plant response rating, Galium reported for the compound O=C1NCC(c2cccc(C(F)(F)F)c2)C1C(=O)Nc1ccc(F)cc1F (racemic) [Compound 207] is 0

The reported value for O=C1NCC(c2cc(F)cc(F)c2)C1C(=O)Nc1cccc(F)c1F (racemic) [Compound 279] in terms of Plant response rating, Galium is 40

Plant response rating, Galium in this record for CC(C)(C)c1cccc(C2CNC(=O)C2C(=O)Nc2ccccc2C(F)(F)F)c1 (racemic) [Compound 201] : 0

So, O=C1NCC(c2ccc(Cl)cc2)C1C(=O)Nc1ccccc1Cl (centres unmarked) [Compound 220] ? Its Plant response rating, Galium was 0

Quick note, Plant response rating, Galium for COc1ccc(C2CNC(=O)C2C(=O)Nc2cccc(F)c2F)cc1C(F)(F)F (centres unmarked) [Compound 234] landed at 30

----------
System: soybean
protocol: Test C pre-/postemergence herbicide test
Type: in vivo, Glycine max
measurementContext: Preemergence, 125 g ai/ha; scale 0 to 100 (0 no effect, 100 complete control)
Field: Plant response rating, Soybean. Provide a value for each of the molecules that follow.
Answer using only a numeral; do not append any unit.

Noted Plant response rating, Soybean for O=C1NCC(c2cccc(C(F)(F)F)c2)C1C(=O)Nc1ccccc1Cl (racemic) , tested on soybean: 0

Param item: O=C1NCC(c2ccc(C(F)(F)F)c(F)c2)C1C(=O)Nc1cccc(F)c1F (racemic) ; param system: soybean; output Plant response rating, Soybean: 0

# value of Plant response rating, Soybean, soybean, item O=C1NCC(c2ccc(C(F)(F)F)cc2)C1C(=O)Nc1ccc(F)c(F)c1F (stereo not drawn) = 0

----------
Test system: galium
protocol: Test A postemergence herbicide test
Format: in vivo, Galium aparine
measurementContext: 125 g ai/ha, 0 to 100 scale, 0 no effect, 100 complete control
Consider the following compounds; for each one, report its Plant response rating, Galium.
Give only the figure.

The value of Plant response rating, Galium measured for the compound O=C1NCC(c2ccc(F)cc2)C1C(=O)Nc1cccc(F)c1F (racemic) turned out to be 30

Noted for O=C1NCC(c2cccc(C(F)(F)F)c2)C1C(=O)Nc1ncc(Cl)s1 (racemic) : its Plant response rating, Galium reads 0

// recorded Plant response rating, Galium for Cc1ccc(C2CNC(=O)C2C(=O)Nc2ccccc2F)cc1F (racemic) : 10

compound Cc1ccc(C2CNC(=O)C2C(=O)Nc2cccc(F)c2F)cc1 (racemic) , Plant response rating, Galium observed: 60

Noted for Cc1ccc(C2CNC(=O)C2C(=O)Nc2ccccc2Cl)cc1 (racemic) : its Plant response rating, Galium reads 60

----------
Tested on: wheat
protocol: Test A pre-/postemergence herbicide test
Format: in vivo, Triticum aestivum
measurementContext: Preemergence, 1000 g ai/ha; visual rating on 0 to 100 scale (0 no effect, 100 complete control), approx. 10 days
observedProperty: Plant response rating, Wheat
Lab note: jot down the number only; don't add units.

In plain terms, O=C1NCC(c2ccc(F)c(F)c2)C1C(=O)Nc1ccc(F)cc1F (racemic) has a documented Plant response rating, Wheat of 0

The reported Plant response rating, Wheat of the compound O=C1NCC(c2ccc(Cl)c(Cl)c2)C1C(=O)Nc1ccccc1C(F)(F)F (racemic) was 0

Lab note: O=C1NCC(c2ccc(F)c(F)c2)C1C(=O)N(O)c1ccccc1 (stereo not shown) gave Plant response rating, Wheat of 0

The measured Plant response rating, Wheat associated with Cc1ccccc1NC(=O)C1C(=O)NCC1c1cc(F)c(F)c(F)c1 (racemic) reads 0

----------
Test system: crabgrass, large
protocol: Test A pre-/postemergence herbicide test
Type: in vivo, Digitaria sanguinalis
measurementContext: preemergence, 500 g ai/ha; 0 to 100 scale
observedProperty: Plant response rating, Crabgrass, Large

Field Plant response rating, Crabgrass, Large (entry O=C1NCC(c2ccc(F)c(F)c2)C1C(=O)Nc1cccc(F)c1F (racemic) ) reads 90

Quick note, Plant response rating, Crabgrass, Large for N#Cc1ccccc1NC(=O)C1C(=O)NCC1c1ccc(Cl)c(Cl)c1 (racemic) landed at 80

Per the records, this compound ( O=C1NCC(c2ccccc2)C1(Br)C(=O)Nc1ccc(Br)cc1F (centres unmarked) ) has Plant response rating, Crabgrass, Large equal to 50

# compound O=C1NCC(c2ccccc2)C1C(=O)Nc1ccccc1F (racemic) ; its Plant response rating, Crabgrass, Large = 90

The recorded Plant response rating, Crabgrass, Large for entry CC1NC(=O)C(C(=O)Nc2ccccc2F)C1c1ccc(F)c(F)c1 (mixture of isomers) equals 90

Record O=C1NCC(c2ccc3c(c2)OC(F)(F)O3)C1C(=O)Nc1cccc(F)c1F (centres unmarked) , field Plant response rating, Crabgrass, Large: 90

Input O=C1NCC(c2cccc(Br)c2)C1C(=O)Nc1ccccc1F (centres unmarked) . Output Plant response rating, Crabgrass, Large: 90

Entry O=C1NCC(c2cccc(F)c2)C1C(=O)Nc1ccccc1F (racemic) , Plant response rating, Crabgrass, Large reported as 90

----------
System: waterhemp
protocol: Test C pre-/postemergence herbicide test
Type: in vivo, Amaranthus rudis
measurementContext: Preemergence, 125 g ai/ha; scale 0 to 100
Give measured Plant response rating, Waterhemp for each item. Keep answers brief.
Hey, just send me the number, nothing else.

Reported Plant response rating, Waterhemp (waterhemp) for entry O=C1NCC(c2cccc(Br)c2)C1C(=O)Nc1ccccc1F (stereo not drawn) is 0

Lab entry: waterhemp assay, compound O=C1NCC(c2cccc(C(F)(F)F)c2)C1C(=O)Nc1ccccc1Cl (stereo not drawn) , Plant response rating, Waterhemp = 65

The reported Plant response rating, Waterhemp value, waterhemp, for O=C1NCC(c2cccc(OC(F)F)c2)C1C(=O)Nc1cccc(F)c1F (stereo not drawn) reads 80

The reported Plant response rating, Waterhemp value, waterhemp, for O=C1NCC(c2cccc(OC(F)F)c2)C1C(=O)Nc1ccc(F)c(F)c1F (stereo not drawn) reads 80

Known value: waterhemp Plant response rating, Waterhemp of the compound O=C1NCC(c2cccc(C(F)(F)F)c2)C1C(=O)Nc1ccc(F)c(F)c1F (stereo not drawn) equals 85

Record O=C1NCC(c2cccc(Br)c2)C1C(=O)Nc1cccc(F)c1F (stereo not drawn) ; system waterhemp; Plant response rating, Waterhemp = 30

----------
Test system: pigweed
protocol: Test C pre-/postemergence herbicide test
Type: in vivo, Amaranthus retroflexus
measurementContext: Postemergence, 62 g ai/ha; scale 0 (no effect) to 100 (complete control)
Consider the following compounds; for each one, report its Plant response rating, Pigweed.
# output: bare number, no unit

Lookup result for O=C1NCC(c2cccc(OC(F)F)c2)C1C(=O)Nc1ccccc1F (centres unmarked) [Compound 223] ; measured Plant response rating, Pigweed: 10

Summary for this compound, O=C1NCC(c2ccc(C(F)(F)F)cc2)C1C(=O)Nc1ccc(F)c(F)c1F (centres unmarked) [Compound 232] : Plant response rating, Pigweed is 85

O=C1NCC(c2cccc(OC(F)F)c2)C1C(=O)Nc1cccc(F)c1F (centres unmarked) [Compound 324] has a reported Plant response rating, Pigweed of 35

Input CN1CC(c2ccc(F)c(F)c2)C(C(=O)Nc2ccccc2F)C1=O (centres unmarked) [Compound 302] . Output Plant response rating, Pigweed: 20

// recorded Plant response rating, Pigweed for O=C1NCC(c2cccc(C(F)(F)F)c2)C1C(=O)Nc1ccccc1Cl (centres unmarked) [Compound 312] : 20

----------
Test system: galium
protocol: Test C pre-/postemergence herbicide test
Assay type: in vivo, Galium aparine
measurementContext: Postemergence, 31 g ai/ha; scale 0 to 100 (0 no effect, 100 complete control)
observedProperty: Plant response rating, Galium

# Plant response rating, Galium of CN1CC(c2cccc(C(F)(F)F)c2)C(C(=O)Nc2ccccc2F)C1=O (stereo not shown) = 45

Looking up O=C1NCC(c2cccc(Br)c2)C1C(=O)Nc1cccc(F)c1F (stereo not shown) , I found its Plant response rating, Galium recorded as 30

Sample O=C1NCC(c2ccc(C(F)(F)F)cc2)C1C(=O)Nc1ccc(F)c(F)c1F (stereo not shown) ; Plant response rating, Galium observed: 75

Kindly note the recorded Plant response rating, Galium for CN1CC(c2ccc(F)cc2)C(C(=O)Nc2cccc(F)c2F)C1=O (stereo not shown) , which is 30

----------
Test system: ragweed
protocol: Test A pre-/postemergence herbicide test
Type: in vivo, Ambrosia elatior
measurementContext: Postemergence, 500 g ai/ha
Give Ragweed plant response rating (0 to 100 scale, 0 is no effect, 100 is complete control) for every item shown.
Lab note: write the figure by itself, no unit.

GET /value?item= O=C1NCC(c2ccc(C(F)(F)F)cc2)C1C(=O)Nc1ccc(F)c(F)c1F (stereo not shown) [Compound 232] &field=Ragweed plant response rating (0 to 100 scale, 0 is no effect, 100 is complete control) returns 50

Query Cc1ccc(C2CNC(=O)C2C(=O)Nc2ccccc2Cl)cc1 (racemic) [Compound 152] yields Ragweed plant response rating (0 to 100 scale, 0 is no effect, 100 is complete control) of 50

Looking up CCc1cccc(C2CNC(=O)C2C(=O)Nc2cccc(F)c2F)c1 (racemic) [Compound 170] , I see its Ragweed plant response rating (0 to 100 scale, 0 is no effect, 100 is complete control) listed as 50

Value of Ragweed plant response rating (0 to 100 scale, 0 is no effect, 100 is complete control) reported for the molecule O=C1NCC(c2cccc(OC(F)(F)C(F)F)c2)C1C(=O)Nc1ccccc1F (racemic) [Compound 121] is 30

// Ragweed plant response rating (0 to 100 scale, 0 is no effect, 100 is complete control) value for O=C1NCC(c2cccc(OC(F)(F)C(F)F)c2)C1C(=O)Nc1ccc(F)c(F)c1F (racemic) [Compound 124] : 70

get_value(item= Cc1ccc(F)c(NC(=O)C2C(=O)NCC2c2cccc(C(F)(F)F)c2)c1 (racemic) [Compound 183] , readout=Ragweed plant response rating (0 to 100 scale, 0 is no effect, 100 is complete control)) returns 0

Short answer for O=C1NCC(c2ccc(Cl)cc2)C1C(=O)Nc1ccccc1Cl (stereo not shown) [Compound 220] : Ragweed plant response rating (0 to 100 scale, 0 is no effect, 100 is complete control) was 0
